molecular target: HIV-1 envelope proteins of the panel of 12 global reference pseudovirus strains of HIV-1 ("global panel")
MEASURED QUANTITY: neutralizing activity, TZM-bl cell pseudovirus neutralization assay (breadth) (%)
Numbers only; they are read as %.

Req: Would you mind telling me what neutralizing activity, TZM-bl cell pseudovirus neutralization assay (breadth) value was observed for 04_B09 (antibody, V domains shown) VH: SVRLDQSGTAVKKPGASVRVSCRAPDSFTVYRPRLSAYFIGEFNIHWLRQAPGQGLEWLGFVNIFRGAVKYSSAFRGRITITRDTSLETSYLDLGALKPDDTATYFCAWDKNVDDNPWRLDSWGQGTLVVVSS VL: YIQVTQSPSSLSASVGDTITVACQVSQDVGWAVNWYHQRPGRPPYNLIYTTSNLAPGVASRFRGTRVATYFTLTINNLLPEDVGTYYCQVFESFAPGGTRVDLR ?
Resp: 100

Taken from patent US20260242450A1.
